- PROTOCOL: Absorbance properties of halogenated xanthenes (λmax, α)
- Format: physicochemical
- SETTINGS: EtOH

# CPD SMILES, λmax (nm) EtOH
rows = [
    ("O=C1OC2(c3cc(I)c(O)c(I)c3Oc3c2cc(I)c(O)c3I)c2c(Cl)c(Cl)c(Cl)c(Cl)c21", "557 nm"),
    ("O=C1OC2(c3ccccc31)c1ccc(O)c(Cl)c1Oc1c2ccc(O)c1Cl", "511 nm"),
    ("O=C1OC2(c3cc(Cl)c(O)cc3Oc3cc(O)c(Cl)cc32)c2ccccc21", "511 nm"),
    ("CCOC(=O)c1ccccc1-c1c2cc(Br)c(=O)c(Br)c-2oc2c(Br)c([O-])c(Br)cc12.[K+]", "532 nm"),
    ("O.O=C([O-])c1ccccc1-c1c2cc(I)c(=O)c(I)c-2oc2c(I)c([O-])c(I)cc12.[Na+].[Na+]", "532 nm"),
    ("O=C1OC2(c3ccc(O)cc3Oc3cc(O)ccc32)c2ccccc21", "499 nm"),
    ("O=C([O-])c1c(Cl)c(Cl)c(Cl)c(Cl)c1-c1c2cc(Br)c(=O)c(Br)c-2oc2c(Br)c([O-])c(Br)cc12.[Na+].[Na+]", "548 nm"),
]

###

- PROTOCOL: Absorbance properties of halogenated xanthenes (λmax, α)
- Format: physicochemical
- SETTINGS: H2O
- Excerpt: Certain general properties of this class of agents are discussed in further detail in U.S. Ser. No. 09/130,041, filed on Aug. 6, 1998, U.S. Ser. No. 09/184,388, filed on Nov. 2, 1998, and U.S. Ser. No. 09/216,787, filed on Dec. 21, 1998, which are herein incorporated by reference in their entirety.
# Lookup of reported λmax (nm) H2O keyed by entry
ENDPOINT: λmax (nm) H2O

# COMPOUND, OBSERVED VALUE
data = [
    ("O=C(O)c1ccccc1-c1c2cc([N+](=O)[O-])c(=O)c(Br)c-2oc2c(Br)c(O)c([N+](=O)[O-])cc12 [Eosin B]", 522),
    ("O.O=C([O-])c1ccccc1-c1c2cc(I)c(=O)c(I)c-2oc2c(I)c([O-])c(I)cc12.[Na+].[Na+] [Erythrosin B]", 528),
    ("O=C1OC2(c3ccc(O)cc3Oc3cc(O)ccc32)c2ccccc21 [Fluorescein]", 490),
    ("O=C1OC2(c3ccccc31)c1cc(Cl)c(O)c(Cl)c1Oc1c2cc(Cl)c(O)c1Cl [2′,4′,5′,7′-Tetrachlorofluorescein]", 510),
    ("O=C([O-])c1c(Cl)c(Cl)c(Cl)c(Cl)c1-c1c2cc(Br)c(=O)c(Br)c-2oc2c(Br)c([O-])c(Br)cc12.[Na+].[Na+] [Phloxine B]", 541),
    ("O=C([O-])c1ccccc1-c1c2cc(Br)c(=O)c(Br)c-2oc2c(Br)c([O-])c(Br)cc12.[Na+].[Na+] [Eosin Y]", 517),
    ("O=C1OC2(c3ccc(O)cc3Oc3cc(O)ccc32)c2c(Cl)c(Cl)c(Cl)c(Cl)c21 [4,5,6,7-Tetrachlorofluorescein]", 515),
    ("O=C1OC2(c3cc(Cl)c(O)cc3Oc3cc(O)c(Cl)cc32)c2ccccc21 [2′,7′-Dichlorofluorescein]", 502),
    ("O=C1OC2(c3ccccc31)c1ccc(O)c(Cl)c1Oc1c2ccc(O)c1Cl [4′,5′-Dichlorofluorescein]", 502),
    ("O=C1OC2(c3cc(I)c(O)c(I)c3Oc3c2cc(I)c(O)c3I)c2c(Cl)c(Cl)c(Cl)c(Cl)c21 [Rose Bengal]", 547),
]

###

- PROTOCOL: Photochemical quantum yields (triplet, singlet oxygen)
- Assay type: physicochemical
- SETTINGS: H2O
Define the label as Met when φ (singlet oxygen) H2O is strictly less than 0.3 and as Not met in all remaining cases.

# CPD SMILES, QUALITATIVE LABEL
rows = [
    ("O=C1OC2(c3cc(Cl)c(O)cc3Oc3cc(O)c(Cl)cc32)c2ccccc21", "Met"),
    ("O=C([O-])c1c(Cl)c(Cl)c(Cl)c(Cl)c1-c1c2cc(Br)c(=O)c(Br)c-2oc2c(Br)c([O-])c(Br)cc12.[Na+].[Na+]", "Not met"),
    ("O.O=C([O-])c1ccccc1-c1c2cc(I)c(=O)c(I)c-2oc2c(I)c([O-])c(I)cc12.[Na+].[Na+]", "Not met"),
    ("O=C1OC2(c3ccc(O)cc3Oc3cc(O)ccc32)c2ccccc21", "Met"),
    ("O=C1OC2(c3cc(I)c(O)c(I)c3Oc3c2cc(I)c(O)c3I)c2c(Cl)c(Cl)c(Cl)c(Cl)c21", "Not met"),
    ("O=C1OC2(c3ccccc31)c1cc(Cl)c(O)c(Cl)c1Oc1c2cc(Cl)c(O)c1Cl", "Met"),
    ("O=C([O-])c1ccccc1-c1c2cc(Br)c(=O)c(Br)c-2oc2c(Br)c([O-])c(Br)cc12.[Na+].[Na+]", "Not met"),
    ("O=C1OC2(c3ccccc31)c1ccc(O)c(Cl)c1Oc1c2ccc(O)c1Cl", "Met"),
]

###

# Lookup of reported φ (singlet oxygen) EtOH keyed by entry
- PROTOCOL: Photochemical quantum yields (triplet, singlet oxygen)
- Format: physicochemical
- SETTINGS: EtOH
ENDPOINT: φ (singlet oxygen) EtOH

# CPD SMILES, ENDPOINT, OBSERVED VALUE
rows = [
    ("O=C([O-])c1ccccc1-c1c2cc(Br)c(=O)c(Br)c-2oc2c(Br)c([O-])c(Br)cc12.[Na+].[Na+]", "φ (singlet oxygen) EtOH", 0.57),
    ("O=C([O-])c1c(Cl)c(Cl)c(Cl)c(Cl)c1-c1c2cc(Br)c(=O)c(Br)c-2oc2c(Br)c([O-])c(Br)cc12.[Na+].[Na+]", "φ (singlet oxygen) EtOH", 0.63),
    ("O=C1OC2(c3ccccc31)c1cc(Cl)c(O)c(Cl)c1Oc1c2cc(Cl)c(O)c1Cl", "φ (singlet oxygen) EtOH", 0.05),
    ("O=C1OC2(c3ccc(O)cc3Oc3cc(O)ccc32)c2ccccc21", "φ (singlet oxygen) EtOH", 0.03),
    ("O=C1OC2(c3cc(I)c(O)c(I)c3Oc3c2cc(I)c(O)c3I)c2c(Cl)c(Cl)c(Cl)c(Cl)c21", "φ (singlet oxygen) EtOH", 0.75),
    ("O=C1OC2(c3ccccc31)c1ccc(O)c(Cl)c1Oc1c2ccc(O)c1Cl", "φ (singlet oxygen) EtOH", 0.07),
    ("O.O=C([O-])c1ccccc1-c1c2cc(I)c(=O)c(I)c-2oc2c(I)c([O-])c(I)cc12.[Na+].[Na+]", "φ (singlet oxygen) EtOH", 0.63),
    ("O=C1OC2(c3cc(Cl)c(O)cc3Oc3cc(O)c(Cl)cc32)c2ccccc21", "φ (singlet oxygen) EtOH", 0.07),
]

###

# Lookup of reported λmax (nm) EtOH keyed by entry
- PROTOCOL: Absorbance properties of halogenated xanthenes (λmax, α)
- Type: physicochemical
- SETTINGS: EtOH
ENDPOINT: λmax (nm) EtOH

# CPD SMILES, ENDPOINT, UNIT STRING, OBSERVED VALUE
measured = [
    ("CCN(CC)CC.CCOC(=O)c1c(Cl)c(Cl)c(Cl)c(Cl)c1-c1c2cc(I)c(=O)c(I)c-2oc2c(I)c(O)c(I)cc12", "λmax (nm) EtOH", "nm", 563),
    ("O=C([O-])c1ccccc1-c1c2cc(Br)c(=O)c(Br)c-2oc2c(Br)c([O-])c(Br)cc12.[Na+].[Na+]", "λmax (nm) EtOH", "nm", 523),
    ("O=C1OC2(c3ccccc31)c1cc(Cl)c(O)c(Cl)c1Oc1c2cc(Cl)c(O)c1Cl", "λmax (nm) EtOH", "nm", 520),
]

###

- PROTOCOL: Absorbance properties of halogenated xanthenes (λmax, α)
- Format: physicochemical
- SETTINGS: MeOH

# CPD SMILES, λmax (nm) MeOH
records = [
    ("O=C1OC2(c3ccccc31)c1ccc(O)c(Br)c1Oc1c2ccc(O)c1Br", 450),
    ("O.O=C([O-])c1ccccc1-c1c2cc(I)c(=O)c(I)c-2oc2c(I)c([O-])c(I)cc12.[Na+].[Na+]", 529),
    ("O=C1OC2(c3cc(I)c(O)c(I)c3Oc3c2cc(I)c(O)c3I)c2c(Cl)c(Cl)c(Cl)c(Cl)c21", 556),
    ("O=C1OC2(c3ccc(O)cc3Oc3cc(O)ccc32)c2ccccc21", 492),
    ("O=C([O-])c1ccccc1-c1c2cc(Br)c(=O)c(Br)c-2oc2c(Br)c([O-])c(Br)cc12.[Na+].[Na+]", 527),
    ("O=C([O-])c1c(Cl)c(Cl)c(Cl)c(Cl)c1-c1c2cc(Br)c(=O)c(Br)c-2oc2c(Br)c([O-])c(Br)cc12.[Na+].[Na+]", 547),
]
